# experimental-target: D(2) dopamine receptor (Rattus norvegicus)
# Sequence (P61169 whole entry): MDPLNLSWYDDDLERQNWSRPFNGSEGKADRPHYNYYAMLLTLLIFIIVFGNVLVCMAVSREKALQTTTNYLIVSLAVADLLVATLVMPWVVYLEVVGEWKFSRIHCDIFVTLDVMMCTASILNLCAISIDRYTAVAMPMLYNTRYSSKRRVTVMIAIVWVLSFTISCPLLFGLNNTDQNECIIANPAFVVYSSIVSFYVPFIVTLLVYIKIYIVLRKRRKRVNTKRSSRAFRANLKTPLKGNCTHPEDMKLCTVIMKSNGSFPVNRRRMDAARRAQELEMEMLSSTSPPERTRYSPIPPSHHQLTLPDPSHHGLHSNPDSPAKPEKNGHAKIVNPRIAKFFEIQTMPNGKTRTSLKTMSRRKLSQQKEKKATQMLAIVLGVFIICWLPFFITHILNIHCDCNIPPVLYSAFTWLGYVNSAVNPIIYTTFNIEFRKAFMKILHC
# assay-text: Binding affinity for dopamine receptor D2 was evaluated by the ability to displace [3H]spiperone
reported-property: IC50 (nM)
Unit nM implied. Number only.

Problem: Which value of IC50 has been reported for CN1CCC[C@@H](c2cccc(O)c2)C1 in the records?
Result: 1950

====

# assay-text: Selectivity pIC50 (sigma)-pIC50(D2)
Rule: Selectivity below 0.4 gives true (1), anything at or above gives false (0).

> print(dat)
                        chemical.smiles  category.label
1        CCCCN1CCC[C@@H](c2cccc(O)c2)C1       false (0)
2              Oc1cccc([C@@H]2CCCNC2)c1        true (1)
3  Oc1cccc([C@@H]2CCCN(CCc3ccccc3)C2)c1       false (0)

Problem: State whether 0.4 exceeds Selectivity recorded for Oc1cccc([C@H]2CCCNC2)c1 .
Result: true (1)

Problem: State whether 0.4 exceeds Selectivity recorded for CC(C)N1CCC[C@@H](c2cccc(O)c2)C1 .
Result: true (1)

Problem: State whether 0.4 exceeds Selectivity recorded for CN1CCC[C@@H](c2cccc(O)c2)C1 .
Result: true (1)
